Sourced from the supplement of paper PMC9112550

system: Escherichia coli TOP10; assay: shrunken log2 fold change of peptide-encoding DNA abundance (4.5 h post-induction vs induction); higher = less antimicrobial activity (less host growth inhibition); conditions: time post-induction: 4.5 h; library: site-saturation at positions 5, 18, 19, 20
Task for the reader: assign each of the following sequences its reported shrunken log2 fold change.

Field: example entries. Status: answers known.
RRIRYRPPRLPRPRPRPNTVPRP; -0.301
RRIRFRPPRLPRPRPRPFFQPRP; -0.378
RRIRKRPPRLPRPRPRPKFVPRP; -0.0367
RRIRRRPPRLPRPRPRPRADPRP; 0.461
RRIRFRPPRLPRPRPRPNVHPRP; -0.339
RRIRARPPRLPRPRPRPWFLPRP; -0.399
RRIRQRPPRLPRPRPRPYGPPRP; -0.415
RRIRSRPPRLPRPRPRPFTMPRP; -0.811

Now consider the entry below.
shrunken log2 fold change for `RRIRYRPPRLPRPRPRPHFGPRP` is 0.0439

---

tested on: Escherichia coli TOP10; experiment: shrunken log2 fold change of peptide-encoding DNA abundance (4.5 h post-induction vs induction); higher = less antimicrobial activity (less host growth inhibition); conditions: time post-induction: 4.5 h; library: site-saturation at positions 5, 18, 19, 20
Please enter Yes where shrunken log2 fold change is greater than or equal to 0.09, and No where it is lower.

Reference set (8 entries):
RRIRRRPPRLPRPRPRPIHMPRP; No
RRIRQRPPRLPRPRPRPIDWPRP; No
RRIRTRPPRLPRPRPRPPHRPRP; No
RRIRDRPPRLPRPRPRPKFNPRP; No
RRIRYRPPRLPRPRPRPIFMPRP; No
RRIRPRPPRLPRPRPRPLGPPRP; Yes
RRIRWRPPRLPRPRPRPNQAPRP; No
RRIRRRPPRLPRPRPRPIGVPRP; Yes

Consider the record given below.
Assess whether reported shrunken log2 fold change for `RRIRDRPPRLPRPRPRPSWDPRP` sits at 0.09 or higher.
Yes

---

tested on: Escherichia coli TOP10; assay: shrunken log2 fold change of peptide-encoding DNA abundance (4.5 h post-induction vs induction); higher = less antimicrobial activity (less host growth inhibition); conditions: time post-induction: 4.5 h; library: site-saturation at positions 5, 18, 19, 20
Task for the reader: assign each of the following sequences its reported shrunken log2 fold change.

Field: example entries. Status: answers known.
RRIRARPPRLPRPRPRPDPAPRP; 1.3
RRIRARPPRLPRPRPRPKSPPRP; 0.425
RRIRDRPPRLPRPRPRPCTHPRP; -0.0766
RRIRERPPRLPRPRPRPKCFPRP; -0.193
RRIRLRPPRLPRPRPRPSTAPRP; -1.05

Batch request: shrunken log2 fold change per item, same order as input.
1. RRIRGRPPRLPRPRPRPPTEPRP
2. RRIRCRPPRLPRPRPRPEPVPRP
3. RRIRIRPPRLPRPRPRPMNLPRP

1. 1.04
2. 0.0937
3. -0.152

---

system: Escherichia coli TOP10; test: shrunken log2 fold change of peptide-encoding DNA abundance (4.5 h post-induction vs induction); higher = less antimicrobial activity (less host growth inhibition); details: time post-induction: 4.5 h; library: site-saturation at positions 5, 18, 19, 20;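 further: peptides expressed intracellularly from a pBAD plasmid library in pooled LB shake-flask culture, induced with 0.3% L-arabinose, DNA abundance read by NGS, three biological replicates, DESeq2 with apeglm shrinkage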
Please enter Criterion met where shrunken log2 fold change is greater than or equal to 0.03, and Criterion not met where it is lower.

Reference set (3 entries):
RRIRCRPPRLPRPRPRPSIIPRP; Criterion not met
RRIRERPPRLPRPRPRPKDCPRP; Criterion met
RRIRGRPPRLPRPRPRPQRQPRP; Criterion met

Assess whether reported shrunken log2 fold change for `RRIRWRPPRLPRPRPRPVEYPRP` sits at 0.03 or higher.
Criterion not met

Assess whether reported shrunken log2 fold change for `RRIRPRPPRLPRPRPRPRLQPRP` sits at 0.03 or higher.
Criterion met

Assess whether reported shrunken log2 fold change for `RRIRKRPPRLPRPRPRPWVLPRP` sits at 0.03 or higher.
Criterion met

Assess whether reported shrunken log2 fold change for `RRIRYRPPRLPRPRPRPQRWPRP` sits at 0.03 or higher.
Criterion not met

Assess whether reported shrunken log2 fold change for `RRIRGRPPRLPRPRPRPYSSPRP` sits at 0.03 or higher.
Criterion not met

Assess whether reported shrunken log2 fold change for `RRIRHRPPRLPRPRPRPCGLPRP` sits at 0.03 or higher.
Criterion not met

Assess whether reported shrunken log2 fold change for `RRIRYRPPRLPRPRPRPYRKPRP` sits at 0.03 or higher.
Criterion not met
